The entries below come with measured Albumin values attached.
protocol-summary: Plasma chemistry markers after subcutaneous administration in CD-1 mice (Example 6)
Type: in vivo
condition-set: CD-1 mice plasma at day 46; 50 mg/kg subcutaneously twice a week for 7 weeks
Strand notation (5' to 3'): a small letter for the sugar, then the base; units joined by * are phosphorothioate-linked, units joined directly phosphodiester-linked; [ ] holds rarer units or linkages, { } end groups; capitals alone tell only the bases. k = constrained ethyl (cEt); [5mC] = 5-methylcytosine; d = 2'-deoxy (DNA)

{"columns": ["substance", "Albumin / g/dL"],
 "data": [
  ["829994 (GGAGGCAGGGCCGCGA; 3-10-3 cEt gapmer, further chemistry not given here) [compound 829994]", 2.9],
  ["799144 (antisense kT*kT*kG*dG*dG*dT*dT*dA*dT*dG*dA*d[5mC]*dG*kG*kA*k[5mC]) [compound 799144]", 2.7],
  ["830025 (antisense TTTGTAAATCGAAAGC; 3-10-3 cEt gapmer, further chemistry not given here) [compound 830025]", 2.5],
  ["798781 (CGTAAGATTCACAGCA; 3-10-3 cEt gapmer, further chemistry not given here) [compound 798781]", 2.2],
  ["830121 (AGAATCAAGCCCTGGC; 3-10-3 cEt gapmer, further chemistry not given here) [compound 830121]", 1.9],
  ["790615 (CCAATGAGAATGCTTC; 3-10-3 cEt gapmer, further chemistry not given here) [compound 790615]", 2.2],
  ["830027 (antisense kA*kA*k[5mC]*d[5mC]*dA*dT*dT*dT*dA*dT*d[5mC]*dT*dG*kG*kT*kG) [compound 830027]", 2.5]
]}
